system: MDA-MB-468 complex spheroids with HUVEC/MSC, viability; test: Anticancer human tumor MDA-MB-468 cell line growth inhibition; conditions: second compound 10 µM; first compound 0.000949 µM; active = viability on the fitted dose curve at most 10% of control; inactive = the rest;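 note: spheroids exposed to agents for seven days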
Labels: yes = active, no = inactive

{"molecule": "CCc1c2c(nc3ccc(O)cc13)-c1cc3c(c(=O)n1C2)COC(=O)[C@]3(O)CC + NC1CCC(NC2CC2c2ccccc2)CC1", "assignedLabel": "yes"}
{"molecule": "CCc1c2c(nc3ccc(O)cc13)-c1cc3c(c(=O)n1C2)COC(=O)[C@]3(O)CC + NC1CC1c1ccc(-c2cccc(O)c2)cc1", "assignedLabel": "yes"}
{"molecule": "Nc1ccn(C2OC(CO)C(O)C2(F)F)c(=O)n1 (stereo unspecified) + NC1CCC(NC2CC2c2ccccc2)CC1", "assignedLabel": "yes"}
{"molecule": "Nc1ncn(C2CC(O)C(CO)S2)c(=O)n1 (stereo unspecified) + NC1CC1c1ccc(-c2cccc(O)c2)cc1", "assignedLabel": "no"}
{"molecule": "Nc1ccn(C2OC(CO)C(O)C2(F)F)c(=O)n1 (stereo unspecified) + NC1CC1c1ccc(-c2cccc(O)c2)cc1", "assignedLabel": "no"}
{"molecule": "Nc1ncn(C2CC(O)C(CO)S2)c(=O)n1 (stereo unspecified) + NC1CCC(NC2CC2c2ccccc2)CC1", "assignedLabel": "no"}

====

test system: MDA-MB-468 complex spheroids with HUVEC/MSC, viability; assay: Anticancer human tumor MDA-MB-468 cell line growth inhibition; settings: curve of first compound; second compound 3.16 µM;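 note: spheroids exposed to agents for seven days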

{"molecule": "Cn1ncnc1C1c2n[nH]c(=O)c3cc(F)cc(c23)NC1c1ccc(F)cc1 (stereo unspecified) + NC1CC1c1ccc(-c2cccc(O)c2)cc1", "systemUnderTest": "MDA-MB-468 complex spheroids with HUVEC/MSC, viability", "readoutUnits": "nM", "IC50": 12}
{"molecule": "CC1COCCN1c1cc(-c2ccnn2C)c2ccnc(-c3ccn[nH]3)c2n1 (stereo unspecified) + NC1CCC(NC2CC2c2ccccc2)CC1", "systemUnderTest": "MDA-MB-468 complex spheroids with HUVEC/MSC, viability", "readoutUnits": "nM", "IC50": 12.2}
{"molecule": "CC1(C)CCC(CN2CCN(c3ccc(C(=O)NS(=O)(=O)c4ccc(NCC5CCOCC5)c([N+](=O)[O-])c4)c(Oc4cnc5[nH]ccc5c4)c3)CC2)=C(c2ccc(Cl)cc2)C1 + NC1CC1c1ccc(-c2cccc(O)c2)cc1", "systemUnderTest": "MDA-MB-468 complex spheroids with HUVEC/MSC, viability", "readoutUnits": "nM", "IC50": 1550}
{"molecule": "CC(C)CC(NC(=O)CNC(=O)c1cc(Cl)ccc1Cl)B1OC(=O)CC(CC(=O)O)(C(=O)O)O1 (stereo unspecified) + NC1CC1c1ccc(-c2cccc(O)c2)cc1", "systemUnderTest": "MDA-MB-468 complex spheroids with HUVEC/MSC, viability", "readoutUnits": "nM", "IC50": 2.32}
{"molecule": "CC(C)CC(NC(=O)CNC(=O)c1cc(Cl)ccc1Cl)B1OC(=O)CC(CC(=O)O)(C(=O)O)O1 (stereo unspecified) + NC1CCC(NC2CC2c2ccccc2)CC1", "systemUnderTest": "MDA-MB-468 complex spheroids with HUVEC/MSC, viability", "readoutUnits": "nM", "IC50": 4.4}
{"molecule": "COc1ccc([C@@H](O)c2cc(-c3ncnc4cc(N5CCOCC5)ccc34)c(F)cc2Cl)nn1 + NC1CC1c1ccc(-c2cccc(O)c2)cc1", "systemUnderTest": "MDA-MB-468 complex spheroids with HUVEC/MSC, viability", "readoutUnits": "nM", "IC50": 701}
